Molecular target: 5-HT1A receptor (Rattus norvegicus, UniProt P19327)
Construct: rat hippocampal membrane homogenate; from tissue; host or cells: rat hippocampal membrane homogenate
Sequence (P19327 whole entry): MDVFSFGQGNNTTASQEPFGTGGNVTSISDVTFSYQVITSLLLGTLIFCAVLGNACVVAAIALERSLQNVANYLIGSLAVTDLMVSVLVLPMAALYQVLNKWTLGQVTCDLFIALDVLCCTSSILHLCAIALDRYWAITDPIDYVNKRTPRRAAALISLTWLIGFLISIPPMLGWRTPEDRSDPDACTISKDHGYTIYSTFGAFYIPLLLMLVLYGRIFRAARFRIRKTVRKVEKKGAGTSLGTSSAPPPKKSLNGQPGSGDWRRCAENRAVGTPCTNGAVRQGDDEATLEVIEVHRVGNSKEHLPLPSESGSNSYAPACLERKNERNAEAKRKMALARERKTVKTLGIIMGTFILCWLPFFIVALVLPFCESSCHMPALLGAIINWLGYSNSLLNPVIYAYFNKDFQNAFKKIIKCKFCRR
Assay: 5-HT1A receptor binding activity in rat hippocampal membrane homogenate
observable: pIC50
Just so you know, pIC50 here is -log10 of the concentration in molar units; reply with that number alone.

Worked cases, pIC50 given:
INSERT INTO measurements (molecule, study_system, measured_value) VALUES
  ('COc1ccccc1N1CCN(C[C@H](c2ccccn2)[C@H](O)C2CCCCC2)CC1 (relative stereo)', '5-HT1A receptor (Rattus norvegicus, UniProt P19327)', 8.40),
  ('COc1ccccc1N1CCN(CC[C@H](c2ccccn2)[C@@H](O)C2CCCCC2)CC1 (relative stereo)', '5-HT1A receptor (Rattus norvegicus, UniProt P19327)', 8.74);

# input Requested read-out: pIC50. Entry: COc1ccccc1N1CCN(CC[C@H](c2ccccn2)[C@H](O)C2CCCCC2)CC1 (relative stereo)
# output 8.70

Attribution: patent US5693642A
